assay-system: T1, gp68_ECD_wt (HCMV strain AD169, UniProt P16739 24-292)
T1 construct: Called 'same antigen as used for immunization'; used as HEK293T supernatant; also called gp68wt extracellular domain
measurement-description: ELISA, coated supernatant

binder	binding result
gp68.02 (antibody, V domains shown, mouse IgG1 hybridoma mAb; leader in entries) VH: EVKLLQSGPELVKPGSSVKISCKASGYSFADHIILWVKQSHGKSLEWIGNINPYSGNTIYNLNFKGKATLTVDKSSSTAYMQLNSLTSEDSAVYYCARIEGYYSMDYWGQGTSVTVSS VL: DIVLTQTPLSLPVSLGDQASISCRSSQSIVHSNGNTYLEWYLQKPGQSPKVLIYKVSKRFSGVPDRFSGSGSGTDFTLKISRVEAEDMGVYYCFQGSHVPLTFGAGTKLELK	binds
